Entry source: patent US8791267B2

target: PDE4B (Homo sapiens, UniProt Q07343)
Sequence (Q07343 whole entry): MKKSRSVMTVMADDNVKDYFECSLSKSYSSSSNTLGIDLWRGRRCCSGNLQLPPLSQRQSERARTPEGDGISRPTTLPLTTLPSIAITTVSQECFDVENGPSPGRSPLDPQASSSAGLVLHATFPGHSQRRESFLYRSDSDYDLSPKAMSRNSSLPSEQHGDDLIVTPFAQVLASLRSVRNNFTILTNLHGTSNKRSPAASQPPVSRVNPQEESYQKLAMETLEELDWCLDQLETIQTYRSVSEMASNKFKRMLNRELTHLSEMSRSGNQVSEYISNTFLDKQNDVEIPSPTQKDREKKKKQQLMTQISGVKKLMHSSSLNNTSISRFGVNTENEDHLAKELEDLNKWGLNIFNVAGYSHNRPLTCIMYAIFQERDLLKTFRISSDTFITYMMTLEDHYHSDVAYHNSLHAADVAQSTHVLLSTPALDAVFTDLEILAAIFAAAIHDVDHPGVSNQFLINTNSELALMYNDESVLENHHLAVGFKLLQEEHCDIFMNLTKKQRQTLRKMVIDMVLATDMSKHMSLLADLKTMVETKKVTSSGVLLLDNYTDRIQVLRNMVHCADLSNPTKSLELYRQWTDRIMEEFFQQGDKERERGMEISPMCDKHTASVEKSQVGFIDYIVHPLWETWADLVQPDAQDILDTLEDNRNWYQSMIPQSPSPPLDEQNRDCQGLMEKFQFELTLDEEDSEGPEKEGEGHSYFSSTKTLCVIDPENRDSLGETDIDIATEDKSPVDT
method: In-vitro assay for PDE4 enzymes, real-time enzyme-coupled spectrophotometric assay, PDE4B Activity (Table 10)
Assay type: biochemical
run conditions: human PDE4B (hPDE4B), enzyme-coupled spectrophotometric assay; read-out: PDE4B Activity, hPDE4B
pIC50: −log10 of the molar value.
quantity kind: pIC50

Hey, quick one: what's pIC50 for each of these?
1. COc1ccc(Cn2ccccc2=O)cc1-c1cccc([N+](=O)[O-])c1 [P-104]
2. COc1ccc(Cc2cnc(N3CC(O)C3)nc2)c(F)c1-c1cccc(C#N)c1 [P-417]
3. COc1ccc(Cc2cnc(NS(C)(=O)=O)nc2)c(F)c1-c1cccc(C(C)=O)c1 [P-284]

["> 5.30", "> 5.30", "> 5.30"]

I need pIC50 for every entry listed below, if you could help.
1. COc1ccc(CN2CCCC2=O)nc1-c1cccc([N+](=O)[O-])c1 [P-031]
2. COc1ccc(Cc2cccnc2Cl)c(O)c1-c1cccc(N)c1 [P-182]

1: 4.40 to 4.68; 2: 4.40 to 4.68
